meta.source: patent US5373000A

system: Pseud. aeruginosa EP-01; test: Antibacterial activities, MIC; assay type: cell-based; details: Pseudomonas aeruginosa, EP01, Pseud. aeruginosa EP-01; read-out: MIC
property: MIC (µg/mL)

[[record]]
compound = "CO/N=C(\\C(=O)N[C@@H]1C(=O)N2C(C(=O)[O-])=C(/C=C/C[N+]3(C)CCC[C@H]3CO)CS[C@H]12)c1nsc(N)n1 (stereo partly drawn)"
property = "MIC"
scaleunit = "µg/mL"
observedmeasurement = 1.56

[[record]]
compound = "CO/N=C(\\C(=O)N[C@@H]1C(=O)N2C(C(=O)[O-])=C(/C=C/C[N+](C)(C)Cc3cscn3)CS[C@H]12)c1nsc(N)n1"
property = "MIC"
scaleunit = "µg/mL"
observedmeasurement = 3.13

[[record]]
compound = "CO/N=C(\\C(=O)N[C@@H]1C(=O)N2C(C(=O)[O-])=C(/C=C/C[N+](C)(C)Cc3nnco3)CS[C@H]12)c1nsc(N)n1"
property = "MIC"
scaleunit = "µg/mL"
observedmeasurement = 0.8

[[record]]
compound = "CO/N=C(\\C(=O)N[C@@H]1C(=O)N2C(C(=O)[O-])=C(/C=C/C[N+](C)(C)[C@H](CO)C(N)=O)CS[C@H]12)c1nsc(N)n1"
property = "MIC"
scaleunit = "µg/mL"
observedmeasurement = 0.8

[[record]]
compound = "CO/N=C(\\C(=O)N[C@@H]1C(=O)N2C(C(=O)[O-])=C(/C=C/C[n+]3ccc4n3CCOC4)CS[C@H]12)c1nsc(N)n1"
property = "MIC"
scaleunit = "µg/mL"
observedmeasurement = 1.56

[[record]]
compound = "CO/N=C(\\C(=O)N[C@@H]1C(=O)N2C(C(=O)[O-])=C(/C=C/C[N+]3(CC(N)=O)CC[C@@H](O)C3)CS[C@H]12)c1nsc(N)n1 (stereo partly drawn)"
property = "MIC"
scaleunit = "µg/mL"
observedmeasurement = 0.8

[[record]]
compound = "CO/N=C(\\C(=O)N[C@@H]1C(=O)N2C(C(=O)[O-])=C(/C=C/C[N+](C)(C)Cc3cnc[nH]3)CS[C@H]12)c1nsc(N)n1"
property = "MIC"
scaleunit = "µg/mL"
observedmeasurement = 1.56

[[record]]
compound = "CO/N=C(\\C(=O)N[C@@H]1C(=O)N2C(C(=O)[O-])=C(/C=C/C[N+]34CCC(C(N)=O)(CC3)CC4)CS[C@H]12)c1nsc(N)n1"
property = "MIC"
scaleunit = "µg/mL"
observedmeasurement = 1.56

[[record]]
compound = "CO/N=C(\\C(=O)N[C@@H]1C(=O)N2C(C(=O)[O-])=C(/C=C/C[N+]34CCCN3CCC4)CS[C@H]12)c1nsc(N)n1"
property = "MIC"
scaleunit = "µg/mL"
observedmeasurement = 1.56

[[record]]
compound = "CO/N=C(\\C(=O)N[C@@H]1C(=O)N2C(C(=O)[O-])=C(/C=C/C[N+]3(C)CCN(C=N)CC3)CS[C@H]12)c1nsc(N)n1"
property = "MIC"
scaleunit = "µg/mL"
observedmeasurement = 1.56

[[record]]
compound = "CC[N+](CC)(C/C=C/C1=C(C(=O)[O-])N2C(=O)[C@@H](NC(=O)/C(=N\\OC)c3nsc(N)n3)[C@H]2SC1)CC(N)=O"
property = "MIC"
scaleunit = "µg/mL"
observedmeasurement = 1.56

[[record]]
compound = "CO/N=C(\\C(=O)N[C@@H]1C(=O)N2C(C(=O)[O-])=C(/C=C/C[N+](C)(C)[C@H](C)C(N)=O)CS[C@H]12)c1nsc(N)n1"
property = "MIC"
scaleunit = "µg/mL"
observedmeasurement = 0.8

[[record]]
compound = "CO/N=C(\\C(=O)N[C@@H]1C(=O)N2C(C(=O)[O-])=C(/C=C/C[N+]34CCOC(C)(C3)OCC4)CS[C@H]12)c1nsc(N)n1"
property = "MIC"
scaleunit = "µg/mL"
observedmeasurement = 1.56

[[record]]
compound = "CC[N+](C)(C/C=C/C1=C(C(=O)[O-])N2C(=O)[C@@H](NC(=O)/C(=N\\OC)c3nsc(N)n3)[C@H]2SC1)CC(N)=O (stereo partly drawn)"
property = "MIC"
scaleunit = "µg/mL"
observedmeasurement = 0.8

[[record]]
compound = "CO/N=C(\\C(=O)N[C@@H]1C(=O)N2C(C(=O)[O-])=C(/C=C/C[N+](C)(C)CCC(N)=O)CS[C@H]12)c1nsc(N)n1"
property = "MIC"
scaleunit = "µg/mL"
observedmeasurement = 0.8

[[record]]
compound = "CO/N=C(\\C(=O)N[C@@H]1C(=O)N2C(C(=O)[O-])=C(/C=C/C[N+](C)(C)CCN(C)C)CS[C@H]12)c1nsc(N)n1"
property = "MIC"
scaleunit = "µg/mL"
observedmeasurement = 1.56

[[record]]
compound = "CO/N=C(\\C(=O)N[C@@H]1C(=O)N2C(C(=O)[O-])=C(/C=C/C[N+]3(C)CCN(S(N)(=O)=O)CC3)CS[C@H]12)c1nsc(N)n1"
property = "MIC"
scaleunit = "µg/mL"
observedmeasurement = 0.8

[[record]]
compound = "CO/N=C(\\C(=O)N[C@@H]1C(=O)N2C(C(=O)[O-])=C(/C=C/C[N+]3(C)CC=C(C(N)=O)CC3)CS[C@H]12)c1nsc(N)n1 (stereo partly drawn)"
property = "MIC"
scaleunit = "µg/mL"
observedmeasurement = 0.8

[[record]]
compound = "CO/N=C(\\C(=O)N[C@@H]1C(=O)N2C(C(=O)[O-])=C(/C=C/C[N+]3(CCO)CCC(C(N)=O)CC3)CS[C@H]12)c1nsc(N)n1 (stereo partly drawn)"
property = "MIC"
scaleunit = "µg/mL"
observedmeasurement = 0.8

[[record]]
compound = "CCO/N=C(\\C(=O)N[C@@H]1C(=O)N2C(C(=O)[O-])=C(/C=C/C[N+](C)(C)CC(N)=O)CS[C@H]12)c1nsc(N)n1"
property = "MIC"
scaleunit = "µg/mL"
observedmeasurement = 1.56

[[record]]
compound = "CO/N=C(\\C(=O)N[C@@H]1C(=O)N2C(C(=O)[O-])=C(/C=C/C[N+](C)(C)Cc3ccoc3)CS[C@H]12)c1nsc(N)n1"
property = "MIC"
scaleunit = "µg/mL"
observedmeasurement = 3.13

[[record]]
compound = "CO/N=C(\\C(=O)N[C@@H]1C(=O)N2C(C(=O)[O-])=C(/C=C/C[N+]3(C)CCS(=O)(=O)CC3)CS[C@H]12)c1nsc(N)n1"
property = "MIC"
scaleunit = "µg/mL"
observedmeasurement = 0.8

[[record]]
compound = "CO/N=C(\\C(=O)N[C@@H]1C(=O)N2C(C(=O)[O-])=C(/C=C/C[N+]3(C)CCNCC3)CS[C@H]12)c1nsc(N)n1"
property = "MIC"
scaleunit = "µg/mL"
observedmeasurement = 0.8

[[record]]
compound = "CO/N=C(\\C(=O)N[C@@H]1C(=O)N2C(C(=O)[O-])=C(/C=C/C[N+]3(C)CCN(C)CC3)CS[C@H]12)c1nsc(N)n1"
property = "MIC"
scaleunit = "µg/mL"
observedmeasurement = 1.56

